# Tested on: SmLux
# experimentSummary: Computationally generated LgLux variants expressed in E. coli, tested in lysates with SmLux and substrate 1c
# Assay type: biochemical
# experimentalSetup: 50 uM substrate 1c, before SmLux peptide addition
So basically: is Baseline Signal (Normalized by expression) under 200? Then fulfilled. Not under? Then not fulfilled.

Examples from the recorded data:
LgLux_4039: Large Lux fragment of MBIO-4039 (protein) MSEEQIRQNLRRFYEALDSGDAITAASLFDPGVTITLWDGTTFTSVEEFREWFESQFSTSKDALREISSLEVRGDTVEVTVRLSFTRNGQKHTVDLLQLFKFV = not fulfilled
5284 (protein) MTPEERFANVRAFYEALASGDLEAAKALFDPGVTITLWDGTTFTSVEEFRAWFEEQFQTSKDALREIVDMEVEGDTVRVLVRLTFTRNGETQEVDLLQLFKFV = fulfilled
5112 (protein) MTPEEIRANVRAFYAALASGDLEAAKALFDPGTTITLWDGTTFTSLEEFLAWFEKQFKASKDAKREIVSLEVEGDVVRVLVRLTYVKDGKEEVVDLLQLLKFV = fulfilled
5273 (protein) MTPEAIRENVRAFYAALASGDWEAAKALFDPGVTITLWDGTTFTSVEEFRAWFEKQFKTSKDALREIVSLEVEGDVVRVLVRLTFVRDGKEEVVDLLQLFKFV = fulfilled

Incoming: Answer whether the molecule 5101 (protein) MSEEQIRQNLRRFYEALDSGDAITAASLFDPGVTITLWDGTTFTSVEEFREWFESQFSTSKDALREISSLEVRGDTVEVTVRLSFTRNGQKHTVDLLQLFKFVGGGGGGNRVVADRVYVNPTG has Baseline Signal (Normalized by expression) strictly less than 200
Outgoing: not fulfilled

Data credit: patent US20260250737A1
